The reported measurements were obtained from patent US9296734B2.

# Test system: Abeta 40 in CSF and brain
# measurementDescription: In vivo inhibition of beta-secretase: Abeta 40 reduction in CSF and brain of the rat
# assayConditions: Abeta 40, rat brain, 10 mpk (unless otherwise noted), after 4 hrs; read-out: % reduction of rat brain levels at 10 mpk

{"compound": "COc1cnc(C(=O)Nc2cc(F)c(F)c([C@]3(C)C[C@@H](C(F)(F)F)OC(N)=N3)c2)c(Cl)c1 [Example 169]", "inhibition in vivo at 10 mg/kg": "46%"}
{"compound": "NC1=N[C@](CF)(c2cc(NC(=O)c3ccc(Cl)cn3)ccc2F)C[C@@H](C(F)(F)F)O1 [Example 3]", "inhibition in vivo at 10 mg/kg": "58%"}
{"compound": "NC1=N[C@](CF)(c2cc(NC(=O)c3ccc(Br)cn3)ccc2F)C[C@@H](C(F)(F)F)O1 [Example 52]", "inhibition in vivo at 10 mg/kg": "54%"}
{"compound": "C[C@@]1(c2nc(NC(=O)c3ccc(C#N)cn3)ccc2F)C[C@@H](C(F)(F)F)OC(N)=N1 [Example 79]", "inhibition in vivo at 10 mg/kg": "79%"}
{"compound": "Cc1cc(C(F)F)cnc1C(=O)Nc1cc(F)c(F)c([C@]2(C)C[C@@H](C(F)(F)F)OC(N)=N2)c1 [Example 171]", "inhibition in vivo at 10 mg/kg": "10%"}
{"compound": "COc1cnc(C(=O)Nc2ccc(F)c([C@]3(CF)C[C@@H](C(F)(F)F)OC(N)=N3)c2)cn1 [Example 2]", "inhibition in vivo at 10 mg/kg": "61%"}
{"compound": "C#CCOc1cnc(C(=O)Nc2cc(F)c(F)c([C@]3(CF)C[C@@H](C(F)(F)F)OC(N)=N3)c2)cn1 [Example 154]", "inhibition in vivo at 10 mg/kg": "71%"}
{"compound": "Cc1cc(NC(=O)c2ccc(Cl)cn2)cc([C@]2(CF)C[C@@H](C(F)(F)F)OC(N)=N2)c1F [Example 224]", "inhibition in vivo at 10 mg/kg": "51%"}
{"compound": "COc1cnc(C(=O)Nc2cc(C)c(F)c([C@]3(CF)C[C@@H](C(F)(F)F)OC(N)=N3)c2)cn1 [Example 227]", "inhibition in vivo at 10 mg/kg": "65%"}
{"compound": "C[C@@]1(c2cc(NC(=O)c3ncc(C#N)cc3Cl)cc(F)c2F)C[C@@H](C(F)(F)F)OC(N)=N1 [Example 167]", "inhibition in vivo at 10 mg/kg": "15%"}
{"compound": "COc1ccc(C(=O)Nc2cc(F)c(F)c([C@]3(C)C[C@@H](C(F)(F)F)OC(N)=N3)c2)nc1 [Example 201]", "inhibition in vivo at 10 mg/kg": "76%"}

###

# targetOfAssay: UniProtKB P07339
# measurementDescription: In vitro enzymatic Cathepsin D (Cat D) FRET assay
# Type: biochemical
# assayConditions: average IC50, cathepsin D enzyme assay; read-out: CatD IC50
pIC50: −log10 of the molar value.

{"chemicalStructure": "C[Si](C)(C)C#Cc1ccc(-c2ccc(F)c([C@]3(CF)C[C@@H](C(F)(F)F)OC(N)=N3)c2)cn1", "pIC50": "< 3.40"}
{"chemicalStructure": "COc1ccc(C(=O)Nc2cc(F)c(F)c([C@]3(CF)C[C@@H](C(F)(F)F)OC(N)=N3)c2)nc1", "pIC50": "< 3.40"}
{"chemicalStructure": "NC1=N[C@](CF)(c2cc(Oc3ccccn3)ccc2F)C[C@@H](C(F)(F)F)O1", "pIC50": "< 3.40"}

###

Listing of entries alongside the reported pIC50.
# targetOfAssay: Cathepsin D (Cat D) (Homo sapiens (Human), UniProt P07339)
# Sequence (P07339 65-412, species assumed): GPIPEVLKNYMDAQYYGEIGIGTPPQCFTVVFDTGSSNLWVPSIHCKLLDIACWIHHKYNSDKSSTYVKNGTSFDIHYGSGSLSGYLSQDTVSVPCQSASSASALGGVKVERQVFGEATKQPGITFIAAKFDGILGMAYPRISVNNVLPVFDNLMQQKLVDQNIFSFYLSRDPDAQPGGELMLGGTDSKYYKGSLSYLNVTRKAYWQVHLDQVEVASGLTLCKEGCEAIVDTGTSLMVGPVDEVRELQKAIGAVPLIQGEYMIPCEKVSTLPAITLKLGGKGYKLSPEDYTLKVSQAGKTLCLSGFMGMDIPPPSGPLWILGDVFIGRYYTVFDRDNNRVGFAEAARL
# measurementDescription: In vitro enzymatic Cathepsin D (Cat D) FRET assay
# Type: biochemical
# assayConditions: average; read-out: CatD IC50
pIC50: −log10 of the molar value.
readout: pIC50

{"chemicalStructure": "Cc1cc(C(F)F)cnc1C(=O)Nc1cc(C)c(F)c([C@]2(CF)C[C@@H](C(F)(F)F)OC(N)=N2)c1", "boundSign": "<", "dataValue": 3.40}
{"chemicalStructure": "Cc1cc(OC(F)F)cnc1C(=O)Nc1cc(F)c(F)c([C@]2(C)C[C@@H](C(F)(F)F)OC(N)=N2)c1", "boundSign": "<", "dataValue": 3.40}
{"chemicalStructure": "Cc1cc(NC(=O)c2ccc(F)cn2)cc([C@]2(CF)C[C@@H](C(F)(F)F)OC(N)=N2)c1F", "boundSign": "=", "dataValue": 3.08}
{"chemicalStructure": "Cc1cc(OCC2CC2)cnc1C(=O)Nc1cc(F)c(F)c([C@]2(C)C[C@@H](C(F)(F)F)OC(N)=N2)c1", "boundSign": "=", "dataValue": 3.29}
{"chemicalStructure": "C[C@@]1(c2cc(NC(=O)c3cnc(OCc4ncco4)cn3)cc(F)c2F)C[C@@H](C(F)(F)F)OC(N)=N1", "boundSign": "=", "dataValue": 2.98}
{"chemicalStructure": "COc1ccc(C(=O)Nc2cc(C)c(F)c([C@]3(CF)C[C@@H](C(F)(F)F)OC(N)=N3)c2)nc1", "boundSign": "=", "dataValue": 2.95}
{"chemicalStructure": "Cc1cc(OCC(F)(F)F)cnc1C(=O)Nc1cc(C)c(F)c([C@]2(CF)C[C@@H](C(F)(F)F)OC(N)=N2)c1", "boundSign": "=", "dataValue": 3.58}
{"chemicalStructure": "Cc1cc(Nc2ncnc3cc(Cl)cnc23)cc([C@]2(CF)C[C@@H](C(F)(F)F)OC(N)=N2)c1F", "boundSign": "<", "dataValue": 3.40}
{"chemicalStructure": "COc1cnc(C(=O)Nc2cc(Cl)c(F)c([C@]3(C)C[C@@H](C(F)(F)F)OC(N)=N3)c2)cn1", "boundSign": "=", "dataValue": 3.40}
{"chemicalStructure": "COc1cnc(C(=O)Nc2cc(F)c(F)c([C@]3(C)C[C@@H](C(F)(F)F)OC(N)=N3)c2)c(C)n1", "boundSign": "<", "dataValue": 3.40}
{"chemicalStructure": "N#Cc1cnc(C(=O)Nc2cc(F)c(F)c([C@]3(CF)C[C@@H](C(F)(F)F)OC(N)=N3)c2)c(F)c1", "boundSign": "<", "dataValue": 3.40}
{"chemicalStructure": "C[C@@]1(c2cc(NC(=O)c3ncc(C#N)cc3F)cc(F)c2F)C[C@@H](C(F)(F)F)OC(N)=N1", "boundSign": "<", "dataValue": 3.40}
{"chemicalStructure": "CNC(=O)c1ccnc(C#Cc2ccc(F)c([C@]3(CF)C[C@@H](C(F)(F)F)OC(N)=N3)c2)c1", "boundSign": "<", "dataValue": 3.40}
{"chemicalStructure": "Cc1nc(OCC(F)(F)F)cnc1C(=O)Nc1cc(F)c(F)c([C@]2(C)C[C@@H](C(F)(F)F)OC(N)=N2)c1", "boundSign": "<", "dataValue": 3.40}
{"chemicalStructure": "NC1=N[C@](CF)(c2cc(C#Cc3cccc4[nH]ccc34)ccc2F)C[C@@H](C(F)(F)F)O1", "boundSign": "=", "dataValue": 3.24}
{"chemicalStructure": "C[C@@]1(c2cc(NC(=O)c3nn(C(F)F)cc3Cl)cc(F)c2F)C[C@@H](C(F)(F)F)OC(N)=N1", "boundSign": "=", "dataValue": 3.20}
{"chemicalStructure": "NC1=N[C@](CF)(c2cc(NC(=O)c3ncc(Cl)cc3F)cc(F)c2F)C[C@@H](C(F)(F)F)O1", "boundSign": "<", "dataValue": 3.40}
{"chemicalStructure": "C[C@@]1(c2cc(NC(=O)c3cnc(OCC(F)(F)F)cn3)cc(Cl)c2F)C[C@@H](C(F)(F)F)OC(N)=N1", "boundSign": "<", "dataValue": 3.40}
{"chemicalStructure": "C[C@@]1(c2cc(NC(=O)c3cnc(C(F)F)cn3)cc(Cl)c2F)C[C@@H](C(F)(F)F)OC(N)=N1", "boundSign": "=", "dataValue": 3.22}

###

Listing of entries alongside the reported IC50.
# targetOfAssay: Cathepsin D (Cat D) (Homo sapiens (Human))
# measurementDescription: In vitro enzymatic Cathepsin D (Cat D) FRET assay
# Format: biochemical
# assayConditions: average; read-out: CatD IC50

{"chemicalStructure": "Cc1cc(NC(=O)c2ccc(C(F)F)cn2)cc([C@]2(CF)C[C@@H](C(F)(F)F)OC(N)=N2)c1F", "targetOfAssay": "Cathepsin D (Cat D) (Homo sapiens (Human))", "IC50": "992 µM"}
{"chemicalStructure": "COc1cnc(C(=O)Nc2cc(C)c(F)c([C@]3(CF)C[C@@H](C(F)(F)F)OC(N)=N3)c2)cn1", "targetOfAssay": "Cathepsin D (Cat D) (Homo sapiens (Human))", "IC50": "> 400 µM"}
{"chemicalStructure": "COc1cnc(C(=O)Nc2cc(C)c(F)c([C@]3(CF)C[C@@H](C(F)(F)F)OC(N)=N3)c2)c(C)c1", "targetOfAssay": "Cathepsin D (Cat D) (Homo sapiens (Human))", "IC50": "780 µM"}
{"chemicalStructure": "C[C@@]1(c2cc(NC(=O)c3ncc(C(F)F)cc3Cl)cc(F)c2F)C[C@@H](C(F)(F)F)OC(N)=N1", "targetOfAssay": "Cathepsin D (Cat D) (Homo sapiens (Human))", "IC50": "> 400 µM"}
